# runDescription: self-splicing fitness, log relative to wild type (ln ratio); higher = more splicing; Tetrahymena group I intron in knt gene, E. coli kanamycin selection, DiMSum; sequences stand for … in CUCUCU…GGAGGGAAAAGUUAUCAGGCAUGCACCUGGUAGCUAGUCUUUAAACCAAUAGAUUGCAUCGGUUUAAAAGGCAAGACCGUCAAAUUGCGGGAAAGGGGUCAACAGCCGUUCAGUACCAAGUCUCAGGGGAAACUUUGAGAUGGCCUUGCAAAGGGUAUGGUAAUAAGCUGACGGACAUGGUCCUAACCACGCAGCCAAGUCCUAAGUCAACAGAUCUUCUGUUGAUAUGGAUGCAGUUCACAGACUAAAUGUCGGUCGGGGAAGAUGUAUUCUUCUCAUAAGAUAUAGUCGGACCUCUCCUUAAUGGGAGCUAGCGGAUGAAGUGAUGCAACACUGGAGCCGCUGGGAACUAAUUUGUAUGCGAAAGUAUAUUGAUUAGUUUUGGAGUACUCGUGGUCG;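 also: selection with 25 µg/mL kanamycin versus none on LB agar overnight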
# statedConditions: 30 °C
endpointName: self-splicing fitness (ln)
// keep it numeric: no unit symbol after the value

[Q] Entry under review: AAUGAGCAAUAUUACGAUGU . Reported self-splicing fitness (ln)?
[A] -2.94

---

# runDescription: self-splicing fitness, log relative to wild type (ln ratio); higher = more splicing; Tetrahymena group I intron in knt gene, E. coli kanamycin selection, DiMSum; sequences stand for … in CUCUCU…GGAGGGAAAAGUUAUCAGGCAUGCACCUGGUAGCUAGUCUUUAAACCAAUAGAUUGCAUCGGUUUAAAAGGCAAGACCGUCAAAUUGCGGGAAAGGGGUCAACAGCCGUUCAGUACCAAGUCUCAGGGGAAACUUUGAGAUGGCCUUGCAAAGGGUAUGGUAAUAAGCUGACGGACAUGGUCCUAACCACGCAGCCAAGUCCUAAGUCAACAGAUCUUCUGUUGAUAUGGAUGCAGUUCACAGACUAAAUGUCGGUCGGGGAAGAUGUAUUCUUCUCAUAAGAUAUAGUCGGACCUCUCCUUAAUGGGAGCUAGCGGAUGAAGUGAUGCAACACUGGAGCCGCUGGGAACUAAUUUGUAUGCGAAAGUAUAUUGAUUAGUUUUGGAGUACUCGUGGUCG
# statedConditions: 37 °C
endpointName: self-splicing fitness (ln)
// keep it numeric: no unit symbol after the value

itemSequence: GUCUAGCAAUAUUACGGGAC
endpointName: self-splicing fitness (ln)
observedMeasurement: -1.65
--
itemSequence: CUCGAGCAAUAUUACGUCUU
endpointName: self-splicing fitness (ln)
observedMeasurement: -3.37
--
itemSequence: ACUUAGCAAUAUUACGUUUA
endpointName: self-splicing fitness (ln)
observedMeasurement: -1.07
--
itemSequence: GCCCAGCAAUAUUACGUAGC
endpointName: self-splicing fitness (ln)
observedMeasurement: -0.216
--
itemSequence: UAGCAGCAAUAUUACGUGAU
endpointName: self-splicing fitness (ln)
observedMeasurement: -1.09
--
itemSequence: AUCAAGCAAUAUUACGGCGG
endpointName: self-splicing fitness (ln)
observedMeasurement: -0.788

[Q] Entry under review: CAACAGCAAUAUUACGACUC . Reported self-splicing fitness (ln)?
[A] -0.579

[Q] Entry under review: AAGCAGCAAUAUUACGUGUU . Reported self-splicing fitness (ln)?
[A] -1.65

[Q] Entry under review: AGCGAGCAAUAUUACGGGAU . Reported self-splicing fitness (ln)?
[A] -2.76

[Q] Entry under review: UUCUAGCAAUAUUACGCGUA . Reported self-splicing fitness (ln)?
[A] -0.575

---

# runDescription: self-splicing fitness, log relative to wild type (ln ratio); higher = more splicing; Tetrahymena group I intron in knt gene, E. coli kanamycin selection, DiMSum; sequences stand for … in CUCUCU…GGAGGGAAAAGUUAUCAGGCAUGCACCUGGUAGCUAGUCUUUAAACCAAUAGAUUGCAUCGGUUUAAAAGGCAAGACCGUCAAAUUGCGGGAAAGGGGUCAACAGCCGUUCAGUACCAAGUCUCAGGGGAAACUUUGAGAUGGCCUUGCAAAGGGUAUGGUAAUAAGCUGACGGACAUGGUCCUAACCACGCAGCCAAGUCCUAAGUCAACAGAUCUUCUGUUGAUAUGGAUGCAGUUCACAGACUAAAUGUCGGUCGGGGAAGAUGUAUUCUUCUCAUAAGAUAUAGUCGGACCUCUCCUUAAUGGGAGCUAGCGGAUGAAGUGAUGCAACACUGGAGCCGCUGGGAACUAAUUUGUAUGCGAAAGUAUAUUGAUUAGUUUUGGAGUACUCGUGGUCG
# statedConditions: 37 °C
endpointName: self-splicing fitness (ln)
// keep it numeric: no unit symbol after the value

itemSequence: CGCAAGCAAUAUUACGCACA
endpointName: self-splicing fitness (ln)
observedMeasurement: -0.825

itemSequence: AGUAAGCAAUAUUACGCGCU
endpointName: self-splicing fitness (ln)
observedMeasurement: -2.1

itemSequence: AGGUAGCAAUAUUACGGCCG
endpointName: self-splicing fitness (ln)
observedMeasurement: 0.0571

itemSequence: GCUUAGCAAUAUUACGGAUU
endpointName: self-splicing fitness (ln)
observedMeasurement: -0.911

[Q] Entry under review: UGCAAGCAAUAUUACGAGAA . Reported self-splicing fitness (ln)?
[A] -1.94

[Q] Entry under review: AAAUAGCAAUAUUACGACAC . Reported self-splicing fitness (ln)?
[A] 0.319

[Q] Entry under review: GUCCAGCAAUAUUACGGAUU . Reported self-splicing fitness (ln)?
[A] -0.789

[Q] Entry under review: CCGAAGCAAUAUUACGGGGU . Reported self-splicing fitness (ln)?
[A] -2.6

[Q] Entry under review: GUUUAGCAAUAUUACGGCAG . Reported self-splicing fitness (ln)?
[A] -1.66

[Q] Entry under review: CGGGAGCAAUAUUACGAAGU . Reported self-splicing fitness (ln)?
[A] -1.89

[Q] Entry under review: CGAAAGCAAUAUUACGCUUA . Reported self-splicing fitness (ln)?
[A] -1.24

[Q] Entry under review: UGUGAGCAAUAUUACGACCU . Reported self-splicing fitness (ln)?
[A] 0.0453

[Q] Entry under review: GAUCAGCAAUAUUACGUCCA . Reported self-splicing fitness (ln)?
[A] -0.173

[Q] Entry under review: UCUAAGCAAUAUUACGUUCG . Reported self-splicing fitness (ln)?
[A] -1.12

[Q] Entry under review: GGAUAGCAAUAUUACGUCUA . Reported self-splicing fitness (ln)?
[A] -0.516

[Q] Entry under review: CCCCAGCAAUAUUACGGGCA . Reported self-splicing fitness (ln)?
[A] -1.45

[Q] Entry under review: ACUAAGCAAUAUUACGAAUG . Reported self-splicing fitness (ln)?
[A] -1.2

---

# runDescription: self-splicing fitness, log relative to wild type (ln ratio); higher = more splicing; Tetrahymena group I intron in knt gene, E. coli kanamycin selection, DiMSum; sequences stand for … in CUCUCU…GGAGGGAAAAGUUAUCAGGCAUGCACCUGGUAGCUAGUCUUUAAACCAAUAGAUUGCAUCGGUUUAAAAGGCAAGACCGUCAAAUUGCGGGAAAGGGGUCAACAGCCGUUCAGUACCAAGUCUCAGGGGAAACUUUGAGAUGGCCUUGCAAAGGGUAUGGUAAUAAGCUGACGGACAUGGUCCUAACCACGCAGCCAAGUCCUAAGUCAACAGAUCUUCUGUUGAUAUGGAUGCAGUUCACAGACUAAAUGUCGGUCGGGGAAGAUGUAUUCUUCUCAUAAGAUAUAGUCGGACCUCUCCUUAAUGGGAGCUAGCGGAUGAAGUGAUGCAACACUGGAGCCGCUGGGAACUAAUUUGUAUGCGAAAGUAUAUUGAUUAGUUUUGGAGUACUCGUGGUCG
# statedConditions: 37 °C
Please enter true where self-splicing fitness (ln) is greater than or equal to -2, and false where it is lower.

Example cases with answers are listed next.
itemSequence: UGAAAGCAAUAUUACGGCUG
qualitativeLabel: true

itemSequence: UAAGAGCAAUAUUACGCAGU
qualitativeLabel: false

itemSequence: GUUGAGCAAUAUUACGUCUU
qualitativeLabel: true

itemSequence: AAGUAGCAAUAUUACGAAAC
qualitativeLabel: true

itemSequence: GCUUAGCAAUAUUACGGGCG
qualitativeLabel: true

itemSequence: ACUGAGCAAUAUUACGGACA
qualitativeLabel: false

itemSequence: UGUAAGCAAUAUUACGAUUC
qualitativeLabel: false

itemSequence: GCUCAGCAAUAUUACGCAUG
qualitativeLabel: true

[Q] // inclusive: self-splicing fitness (ln) at least -2? input: CCGCAGCAAUAUUACGUGAU
[A] false

[Q] // inclusive: self-splicing fitness (ln) at least -2? input: ACGUAGCAAUAUUACGGACC
[A] true

[Q] // inclusive: self-splicing fitness (ln) at least -2? input: GAACAGCAAUAUUACGCAUU
[A] true

[Q] // inclusive: self-splicing fitness (ln) at least -2? input: AUUGAGCAAUAUUACGCCUC
[A] true

[Q] // inclusive: self-splicing fitness (ln) at least -2? input: UCGCAGCAAUAUUACGUAAU
[A] false

[Q] // inclusive: self-splicing fitness (ln) at least -2? input: UGGAAGCAAUAUUACGGUCG
[A] true

[Q] // inclusive: self-splicing fitness (ln) at least -2? input: CCUAAGCAAUAUUACGGCCG
[A] true

[Q] // inclusive: self-splicing fitness (ln) at least -2? input: UGGCAGCAAUAUUACGUGUG
[A] true

[Q] // inclusive: self-splicing fitness (ln) at least -2? input: AGAAAGCAAUAUUACGACGU
[A] true

[Q] // inclusive: self-splicing fitness (ln) at least -2? input: AUAAAGCAAUAUUACGCUAU
[A] true

[Q] // inclusive: self-splicing fitness (ln) at least -2? input: AUAUAGCAAUAUUACGCCAA
[A] true

[Q] // inclusive: self-splicing fitness (ln) at least -2? input: UCCCAGCAAUAUUACGACUU
[A] true

[Q] // inclusive: self-splicing fitness (ln) at least -2? input: UUGCAGCAAUAUUACGGUGU
[A] false

[Q] // inclusive: self-splicing fitness (ln) at least -2? input: GUCAAGCAAUAUUACGUGCG
[A] true
